- TARGET_UNDER_TEST: h-DP1 (Homo sapiens)
- ASSAY_PROCEDURE: Whole cell second messenger (cAMP) assay on cells expressing DP1
pEC50: −log10 of the molar value.
QUANTITY: pEC50

O=C(O)CCCCCC[C@H]1CCC(=O)N1CC[C@@H](O)C1CCCCC1 [Example 3] ... 10.43
O=C(O)CCCCCC[C@H]1CCC(=O)N1CCC(O)C1CCCCC1 (stereo in doubt) [Example 4] ... 8.86
CCCCC[C@H](O)/C=C/[C@H]1C(=O)C[C@H](O)[C@@H]1C/C=C\CCCC(=O)O [PGD2] ... 9.52
O=C(O)CCCCCCC1C(=O)NC(=O)N1CCC(O)C1CCCCC1 (centres unmarked) [BW245C, reference compound] ... 10.51
O=C(O)c1ccc(CCC[C@H]2CCC(=O)N2CC[C@H](O)C2CCCCC2)cc1 [Example 2] ... 9.15

###

- TARGET_UNDER_TEST: h-DP1 (Homo sapiens, UniProt Q13258)
- Construct: expressed in transfected cells; host or cells: HEK293-EBNA
- Sequence (Q13258 whole entry): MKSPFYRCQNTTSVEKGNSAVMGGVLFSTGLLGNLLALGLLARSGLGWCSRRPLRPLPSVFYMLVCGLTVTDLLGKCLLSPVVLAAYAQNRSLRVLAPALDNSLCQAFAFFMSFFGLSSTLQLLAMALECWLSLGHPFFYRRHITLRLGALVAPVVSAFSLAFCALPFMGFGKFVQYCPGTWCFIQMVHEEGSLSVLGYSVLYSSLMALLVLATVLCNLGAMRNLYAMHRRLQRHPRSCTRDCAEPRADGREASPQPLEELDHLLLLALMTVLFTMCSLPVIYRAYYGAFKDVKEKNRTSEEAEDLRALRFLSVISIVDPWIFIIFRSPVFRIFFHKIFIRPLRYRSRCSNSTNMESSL
- ASSAY_PROCEDURE: DP1 receptor binding assay (SPA, receptor membranes)
pKi: −log10 of the molar value.
QUANTITY: pKi

CCCCC[C@H](O)/C=C/[C@H]1C(=O)C[C@H](O)[C@@H]1C/C=C\CCCC(=O)O [PGD2] ... 8.39
O=C(O)CCCCCC[C@H]1CCC(=O)N1CCC(O)C1CCCCC1 (stereo in doubt) [Example 4] ... 7.33
O=C(O)c1ccc(CCC[C@H]2CCC(=O)N2CC[C@@H](O)C2CCCCC2)cc1 [Example 1] ... 8.62

###

- TARGET_UNDER_TEST: h-DP2 (Homo sapiens, UniProt Q9Y5Y4)
- Sequence (Q9Y5Y4 1-395): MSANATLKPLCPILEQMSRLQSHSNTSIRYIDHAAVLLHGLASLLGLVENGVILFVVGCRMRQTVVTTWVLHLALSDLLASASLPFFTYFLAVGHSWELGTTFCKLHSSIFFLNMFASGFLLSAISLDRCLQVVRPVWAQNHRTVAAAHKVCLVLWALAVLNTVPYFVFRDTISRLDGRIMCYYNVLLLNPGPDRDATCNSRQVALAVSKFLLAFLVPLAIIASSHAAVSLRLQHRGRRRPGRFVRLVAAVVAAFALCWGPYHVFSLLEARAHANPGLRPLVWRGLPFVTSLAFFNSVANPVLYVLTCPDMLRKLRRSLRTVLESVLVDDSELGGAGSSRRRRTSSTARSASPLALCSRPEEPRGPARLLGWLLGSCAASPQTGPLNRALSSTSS
QUANTITY: Ki

O=C(O)CCCCCC[C@H]1CCC(=O)N1CCC(O)C1CCCCC1 (stereo in doubt) [Example 4] ... > 10 µM
O=C(O)c1ccc(CCC[C@H]2CCC(=O)N2CC[C@H](O)C2CCCCC2)cc1 [Example 2] ... > 10 µM
O=C(O)CCCCCC[C@H]1CCC(=O)N1CC[C@@H](O)C1CCCCC1 [Example 3] ... > 10 µM

Where do the numbers come from? From patent US7696243B2.
